test: Inhibition of Leishmania braziliensis DNA topoisomerase I
PROPERTY NAME: IC50 (µM)

P. CCCCCC(C1=C(O)C(=O)c2ccccc2C1=O)C1=C(O)C(=O)c2ccccc2C1=O
Q. O=C1C(O)=C(CC2=C(O)C(=O)c3ccccc3C2=O)C(=O)c2ccccc21
R. O=C1C(O)=C(C(C2=C(O)C(=O)c3ccccc3C2=O)c2ccc(F)cc2)C(=O)c2ccccc21
Query: Kindly order the items shown according to IC50, from the highest value down. Reply with the labels, ordered as the question asks.
Result: Q, P, R

* * *

experiment: Inhibition of Leishmania infantum Trypanothione reductase expressed in Escherichia coli BL21 (DE3) using trypanothione as substrate preincubated for 3 mins followed NADPH addition by Dixon plot analysis
PROPERTY NAME: IC50 (nM)
Give just the numeric value; nM need not be written.

Query: IC50; subject: Cc1cc(NC(=O)c2ccc([N+](=O)[O-])s2)ccc1Br
Result: 190
